Target Under Test: T1, native CEMIP/KIAA1199 expressed on the surface of human cancer cells (human, UniProt Q8WUJ3 31-1361)
T1 construct: Endogenous CEMIP of MKN45 gastric and N2LA lung cancer cells in flow cytometry; The same entry is used for CEMIP on exosomes of brain tropic MDA-MB231 cells in the brain slice assay; also called native cell surface CEMIP/KIAA1199; CEMIP on MKN45 and N2LA cells
T1 sequence: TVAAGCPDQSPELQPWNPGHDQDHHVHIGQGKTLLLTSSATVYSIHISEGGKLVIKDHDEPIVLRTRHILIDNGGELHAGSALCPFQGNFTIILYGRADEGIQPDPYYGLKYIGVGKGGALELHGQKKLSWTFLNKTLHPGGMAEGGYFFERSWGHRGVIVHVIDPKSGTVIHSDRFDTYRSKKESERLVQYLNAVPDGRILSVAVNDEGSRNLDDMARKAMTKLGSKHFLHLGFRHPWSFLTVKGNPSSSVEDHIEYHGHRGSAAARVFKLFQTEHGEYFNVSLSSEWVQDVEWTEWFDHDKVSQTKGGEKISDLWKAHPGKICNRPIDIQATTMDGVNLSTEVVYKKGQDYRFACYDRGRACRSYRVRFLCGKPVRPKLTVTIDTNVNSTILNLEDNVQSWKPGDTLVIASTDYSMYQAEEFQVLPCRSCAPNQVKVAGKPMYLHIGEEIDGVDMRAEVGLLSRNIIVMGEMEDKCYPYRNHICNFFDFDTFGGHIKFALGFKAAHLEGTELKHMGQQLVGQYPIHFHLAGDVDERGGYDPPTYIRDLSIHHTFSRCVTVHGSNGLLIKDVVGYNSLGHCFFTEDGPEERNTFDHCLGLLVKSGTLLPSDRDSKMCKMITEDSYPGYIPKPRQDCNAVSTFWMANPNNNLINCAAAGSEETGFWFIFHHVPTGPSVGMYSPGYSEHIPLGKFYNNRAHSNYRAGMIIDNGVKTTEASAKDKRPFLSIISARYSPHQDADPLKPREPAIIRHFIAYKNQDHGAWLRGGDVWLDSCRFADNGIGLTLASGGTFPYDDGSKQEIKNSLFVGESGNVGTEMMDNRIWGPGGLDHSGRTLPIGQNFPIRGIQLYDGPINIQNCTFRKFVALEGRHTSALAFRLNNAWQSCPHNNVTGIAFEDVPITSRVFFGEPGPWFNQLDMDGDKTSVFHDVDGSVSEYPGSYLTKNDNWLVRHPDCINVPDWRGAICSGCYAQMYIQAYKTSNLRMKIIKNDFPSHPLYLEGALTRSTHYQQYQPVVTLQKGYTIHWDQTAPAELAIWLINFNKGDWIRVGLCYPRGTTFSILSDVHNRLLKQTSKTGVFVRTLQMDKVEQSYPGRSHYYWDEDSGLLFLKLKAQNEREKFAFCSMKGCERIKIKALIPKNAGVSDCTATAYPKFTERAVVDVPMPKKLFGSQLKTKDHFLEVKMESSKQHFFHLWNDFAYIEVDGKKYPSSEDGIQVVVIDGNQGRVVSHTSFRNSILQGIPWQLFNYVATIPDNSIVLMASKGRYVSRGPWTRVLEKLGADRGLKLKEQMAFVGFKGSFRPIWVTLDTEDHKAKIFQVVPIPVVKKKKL
Experimental Details: flow cytometry on MKN45 cells

[
  {
    "Binder": "12D08 (cAb5777) (antibody, mouse IgG2a, kappa, V domains shown, Mouse monoclonal antibody from a hybridoma (supernatant, later purified)) VH: EVQLQQSGAELVKPGASVKLSCTASGFNIKDTYMHWVKQRPEQGLIWIGNIDPANGHTKYAPKFQGKATITADTSSNTAYLQLSSLTSEDTAVYYCARSNDYDVDFDYWGQGTTLTVSS VL: DIVMSQSPSSLAVSAGEKVTMSCKSSQSLLNSRTRKNYLAWYQQKPGQSPKLLIYWASTRESGVPDRFTGSGSGTDFSLTISSVQAEDLAVYYCKQSYNLYTFGGGTKLEIKR",
    "binding result": "binds"
  }
]
